Target: Protein-tyrosine kinase 6 (Homo sapiens)
Experiment: Inhibition of Brk at 10 uM by HTRF assay relative to control
Parameter inhibition: see the listing below.
Your answer should be a plain number; it is taken to be in %.

# example entries with known answers
[
  {
    "chemicalStructure": "Cc1cccc(Oc2ccnc(N3CCC[C@H]3C(=O)NCCCn3ccnc3)n2)c1",
    "inhibition, %": 0
  },
  {
    "chemicalStructure": "Nc1nc(Nc2ccc(C(=O)NCCc3ccncc3)cc2)cc(N2CCOCC2)n1",
    "inhibition, %": 0
  },
  {
    "chemicalStructure": "CC(=O)CCCCC(=O)N1CCN(c2nccc(Oc3cccc(C)c3)n2)CC1",
    "inhibition, %": 3
  },
  {
    "chemicalStructure": "Cc1cccc(Oc2ccnc(N3CCN(C(=O)c4c(C)noc4C)CC3)n2)c1",
    "inhibition, %": 2
  },
  {
    "chemicalStructure": "COC[C@@H]1CCCN1C(=O)[C@@H]1CCCN1c1cc(Nc2cccc(OC)c2)nc(N)n1",
    "inhibition, %": 17
  }
]

Challenge: Tell me inhibition reported for Cc1cc(C(=O)N2CCN(c3ncnc4c3CN(Cc3ccccc3)CC4)CC2)c(C)n1C
Response given: 22

---

Molecular target: 3-phosphoinositide-dependent protein kinase 1 (Homo sapiens)
Experiment: Inhibition of PDK1 at 10 uM by HTRF assay relative to control
measuredQuantity: inhibition (%)
Please reply with the bare figure in % and do not write the unit itself.

# example entries with known answers
[
  {
    "chemicalStructure": "Cc1cccc(N(C)c2cc(Nc3cccc(C(=O)NCCCn4ccnc4)c3)ncn2)c1",
    "inhibition (%)": 0
  },
  {
    "chemicalStructure": "CN(C)CC(C)(C)CNC(=O)C1CCN(c2cc(N3CCOCC3)nc(N)n2)CC1",
    "inhibition (%)": 0
  },
  {
    "chemicalStructure": "Nc1nc(Nc2ccccc2)cc(N2CCC(C(=O)NCCc3ccccn3)CC2)n1",
    "inhibition (%)": 0
  }
]

Challenge: Tell us which inhibition value is on record for O=C(COc1ccccc1)N1CCN(c2nccc(Nc3ccc4ncsc4c3)n2)CC1
Response given: 0

Challenge: For the compound Cc1cccc(Nc2ncnc3c2CN(C(=O)c2ccc(N(C)C)c4ccccc24)CC3)c1 , report inhibition.
Response given: 0

Challenge: Answer with the recorded inhibition of Nc1nc(Nc2ccc(C(=O)NCCc3ccncc3)cc2)cc(N2CCOCC2)n1 only.
Response given: 1

Challenge: Provide inhibition value for the following compound: Clc1ccc2sc(CN3CCN(c4ncnc5c4CN(Cc4ccccc4)CC5)CC3)cc2c1
Response given: 3

Challenge: Answer with reported inhibition of Cc1cccc(Nc2nccc(Nc3cccc(C(=O)N(C)CCc4ccccn4)c3)n2)c1
Response given: 8

Challenge: Input Cc1cccc(N(C)c2cc(N3CCN(C(=O)Cc4c[nH]c5ccccc45)CC3)ncn2)c1 , output reported inhibition.
Response given: 3

Challenge: Entry O=C(c1nc(SCc2ccc(Cl)cc2)n2ccccc12)N1CCN(c2ncnc3c2CN(Cc2ccccc2)CC3)CC1 needs its inhibition filled in; supply it.
Response given: 0

Challenge: Given the compound O=C(NC1Cc2ccccc2C1)c1cccc(Nc2ccnc(N3CCN(c4ccccc4)CC3)n2)c1 , write its reported inhibition.
Response given: 0

Challenge: Tell us which inhibition value is on record for O=C(NCc1ccncc1)c1cccc(Nc2cc(Nc3cccc(Br)c3)ncn2)c1
Response given: 4

Challenge: Report measured inhibition; entry is Cc1cccc(N(C)c2cc(Nc3cccc(C(=O)N(C)CCc4ccccn4)c3)ncn2)c1
Response given: 0

Challenge: Give reported inhibition value for O=C(C1CCN(c2nccc(Nc3ccccc3)n2)CC1)N1CC[C@@H](O)C1
Response given: 2

Challenge: Identify measured inhibition associated with O=C(c1nc(SCc2ccc(Cl)cc2)n2ccccc12)N1CCN(c2cc(Nc3cccc(Br)c3)ncn2)CC1
Response given: 0

Challenge: State, in one line, measured inhibition of Cc1cccc(Nc2nccc(Nc3cccc(C(=O)NCc4ccc(N(C)C)cc4)c3)n2)c1
Response given: 0

Challenge: Tell me its inhibition given Nc1nc(N2CCOCC2)cc(N2CCC(C(=O)NCc3cccs3)CC2)n1 as the entry.
Response given: 0

Challenge: Quickly give me recorded inhibition for CC(=O)N1CCN(C(=O)c2cccc(Nc3cc(N(C)c4cccc(C)c4)ncn3)c2)CC1
Response given: 0

Challenge: For the compound COc1cccc(Nc2cc(N3CCC[C@H]3C(=O)NCCc3ccc(O)cc3)nc(N)n2)c1 , give its reported inhibition.
Response given: 0

Challenge: In one line, give reported inhibition of the entry Cc1cccc(Oc2ccnc(N3CCC[C@H]3C(=O)NCCCn3ccnc3)n2)c1 .
Response given: 1

---

Assay: Inhibition of AMPKalpha at 10 uM by HTRF assay relative to control
measuredQuantity: inhibition

Solved cases below.
[
  {
    "compound": "O=C(c1nc(SCc2ccc(Cl)cc2)n2ccccc12)N1CCN(c2cc(Nc3cccc(Br)c3)ncn2)CC1",
    "measuredQuantity": "inhibition",
    "observed": "5%"
  },
  {
    "compound": "CC(=O)CCCCC(=O)N1CCN(c2nccc(Oc3cccc(C)c3)n2)CC1",
    "measuredQuantity": "inhibition",
    "observed": "9%"
  },
  {
    "compound": "O=C(c1nc(SCc2ccc(Cl)cc2)n2ccccc12)N1CCN(c2ncnc3c2CN(Cc2ccccc2)CC3)CC1",
    "measuredQuantity": "inhibition",
    "observed": "1%"
  },
  {
    "compound": "COC[C@@H]1CCCN1C(=O)[C@@H]1CCCN1c1cc(Nc2cccc(OC)c2)nc(N)n1",
    "measuredQuantity": "inhibition",
    "observed": "2%"
  },
  {
    "compound": "CN(CCCn1ccnc1)C(=O)[C@@H]1CCCN1c1nccc(Nc2ccccc2)n1",
    "measuredQuantity": "inhibition",
    "observed": "15%"
  },
  {
    "compound": "COC[C@@H]1CCCN1C(=O)C1CCCN1c1cc(Nc2cccc(Br)c2)ncn1 (stereo partly drawn)",
    "measuredQuantity": "inhibition",
    "observed": "0%"
  },
  {
    "compound": "COC(=O)C(CO)NC(=O)[C@@H]1CCCN1c1nccc(Oc2cccc(C)c2)n1 (stereo partly drawn)",
    "measuredQuantity": "inhibition",
    "observed": "0%"
  },
  {
    "compound": "Cc1cc(C(=O)N2CCN(c3ncnc4c3CN(Cc3ccccc3)CC4)CC2)c(C)n1C",
    "measuredQuantity": "inhibition",
    "observed": "0%"
  }
]

Challenge: Kindly indicate its recorded inhibition. Item: COc1ccc(NC(=O)Cc2ccc(Nc3cc(N(C)c4cccc(C)c4)ncn3)cc2)cn1
Response given: 2%

Challenge: Check the records and state inhibition for O=C(NCCc1ccc(O)cc1)c1cccc(Nc2nccc(Nc3ccc4ncsc4c3)n2)c1
Response given: 8%

Challenge: Provide inhibition value for the following compound: CN(CCc1ccccn1)C(=O)c1cccc(Nc2nccc(Nc3ccc4ncsc4c3)n2)c1
Response given: 16%

---

Listing of recorded inhibition by entry.
Target: Ribosomal protein S6 kinase alpha-3 (Homo sapiens)
Experiment: Inhibition of RSK2 at 10 uM by HTRF assay relative to control
Include the unit right after the number.

The following compounds have reported results that may help.
[
  {
    "compound": "COC[C@@H]1CCCN1C(=O)[C@@H]1CCCN1c1cc(Nc2cccc(OC)c2)nc(N)n1",
    "inhibition": "5%"
  },
  {
    "compound": "Cc1cccc(N(C)c2cc(Nc3cccc(C(=O)N(CC(C)C)CC(C)C)c3)ncn2)c1",
    "inhibition": "0%"
  },
  {
    "compound": "CN(CCc1ccccn1)C(=O)c1cccc(Nc2nccc(Nc3ccc4ncsc4c3)n2)c1",
    "inhibition": "35%"
  },
  {
    "compound": "CC(=O)N1CCN(C(=O)c2cccc(Nc3cc(N(C)c4cccc(C)c4)ncn3)c2)CC1",
    "inhibition": "14%"
  },
  {
    "compound": "Cc1cccc(N(C)c2cc(Nc3cccc(C(=O)NCc4ccncc4)c3)ncn2)c1",
    "inhibition": "3%"
  }
]

Challenge: Identify measured inhibition corresponding to Nc1nc(Nc2ccc(C(=O)NCCc3ccncc3)cc2)cc(N2CCOCC2)n1
Response given: 0%

Challenge: Fill in inhibition for record Cc1cccc(Nc2ncnc3c2CN(C(=O)c2ccc(N(C)C)c4ccccc24)CC3)c1
Response given: 0%

Challenge: Return inhibition (reported value) for this compound: Cc1cccc(Oc2ccnc(N3CCN(CC(=O)Nc4cccc5c4CCCC5)CC3)n2)c1
Response given: 0%

Challenge: Identify measured inhibition corresponding to Cc1cc(C(=O)N2CCN(c3ncnc4c3CN(Cc3ccccc3)CC4)CC2)c(C)n1C
Response given: 0%

---

Biological target: Tyrosine-protein kinase Fes/Fps (Homo sapiens)
Assay: Inhibition of FES at 10 uM by HTRF assay relative to control
Each item that follows carries a reported inhibition.
Expressed in %, but write only the number.

[
  {
    "compound": "Cc1cccc(N(C)c2cc(Nc3cccc(C(=O)N(CC(C)C)CC(C)C)c3)ncn2)c1",
    "unitLabel": "%",
    "inhibition": 7
  },
  {
    "compound": "CC(=O)CCCCC(=O)N1CCN(c2nccc(Oc3cccc(C)c3)n2)CC1",
    "unitLabel": "%",
    "inhibition": 16
  },
  {
    "compound": "O=C(COc1ccccc1)N1CCN(c2nccc(Nc3ccc4ncsc4c3)n2)CC1",
    "unitLabel": "%",
    "inhibition": 18
  }
]

Challenge: Give the observed inhibition of Cc1ccc(CN2CCN(c3nccc(C(C#N)c4ccccn4)n3)CC2)cc1 (stereo not given) for Tyrosine-protein kinase Fes/Fps (Homo sapiens).
Response given: 3

Challenge: Find the measured inhibition of COC(=O)C(CO)NC(=O)[C@@H]1CCCN1c1nccc(Oc2cccc(C)c2)n1 (stereo not given in full) with Tyrosine-protein kinase Fes/Fps (Homo sapiens) as test system.
Response given: 0
